Method Description: AMD070 PK study via SC injection: plasma, lung and liver concentration
Format: in vivo, C57BL/6 mice
Condition Label: C57BL/6, 400 ug; Plasma, SC 400 μg/mouse; read-out: AUC (all time points)
Property Name: AUC
Kindly report the value followed by its unit.

Asked: State its AUC for this compound: NCCCCN(Cc1nc2ccccc2[nH]1)[C@H]1CCCc2cccnc21 [AMD070]
Given back: 970 ng·h/mL

----------
Method Description: AMD070 PK study via IP injection: plasma, lung and liver concentration
Format: in vivo, C57BL/6 mice
Condition Label: C57BL/6, 400 ug; Plasma, IP 400 μg/mouse
Property Name: Cmax (ng/mL)
# output: bare number, implied unit ng/mL

Asked: State its Cmax for this compound: "NCCCCN(Cc1nc2ccccc2[nH]1)[C@H]1CCCc2cccnc21"
Given back: 770

----------
Method Description: AMD070 PK study via SC injection: plasma, lung and liver concentration
Type: in vivo, C57BL/6 mice
Condition Label: C57BL/6, 400 ug; Plasma, SC 400 μg/mouse
Protocol: All preceding procedures were same as those for AMD070 PK studies via IP injections. AMD070 concentrations in mouse plasma were determined using protein precipitation extraction followed by UPLC-MS/MS analysis. […] The sample residue was then reconstituted into 200 μL of 0.1/5/95 FA/ACN/H2O (v/v/v) and analyzed using reverse phase chromatography (gradient elution) combined with multiple reaction monitoring acquisition (MRM). […]
Property Name: Tmax (min)
# output: bare number, implied unit min

Asked: State its Tmax for this compound: NCCCCN(Cc1nc2ccccc2[nH]1)[C@H]1CCCc2cccnc21 [AMD070]
Given back: 30

----------
Method Description: AMD070 PK study via IP injection: plasma, lung and liver concentration
Assay type: in vivo, C57BL/6 mice
Condition Label: C57BL/6; Lung, IP 400 μg/mouse; read-out: Tissue AUC/Plasma AUC
Property Name: Kp

Asked: State its Kp for this molecule: NCCCCN(Cc1nc2ccccc2[nH]1)[C@H]1CCCc2cccnc21 [AMD070]
Given back: 61.2

----------
Method Description: AMD070 PK study via SC injection: plasma, lung and liver concentration
Type: in vivo, C57BL/6 mice
Condition Label: C57BL/6, 400 ug; Lung, SC 400 μg/mouse
Property Name: Cmax (ng/g)
# output: bare number, implied unit ng/g

Asked: State its Cmax for this compound: "NCCCCN(Cc1nc2ccccc2[nH]1)[C@H]1CCCc2cccnc21"
Given back: 5650

----------
Method Description: AMD070 PK study via SC injection: plasma, lung and liver concentration
Format: in vivo, C57BL/6 mice
Condition Label: C57BL/6, 400 ug; Liver, SC 400 μg/mouse
Property Name: Cmax (ng/g)
# output: bare number, implied unit ng/g

Asked: State its Cmax for this compound: NCCCCN(Cc1nc2ccccc2[nH]1)[C@H]1CCCc2cccnc21 [AMD070]
Given back: 5760

----------
Method Description: AMD070 PK study via IP injection: plasma, lung and liver concentration
Type: in vivo, C57BL/6 mice
Condition Label: C57BL/6, 400 ug; Liver, IP 400 μg/mouse
Property Name: Tmax

Asked: State its Tmax for this compound: "NCCCCN(Cc1nc2ccccc2[nH]1)[C@H]1CCCc2cccnc21"
Given back: 30 min

----------
Method Description: AMD070 PK study via SC injection: plasma, lung and liver concentration
Type: in vivo, C57BL/6 mice
Condition Label: C57BL/6; Lung, SC 400 μg/mouse; read-out: Tissue AUC/Plasma AUC
Property Name: Kp
// response body must contain only the number

Asked: State its Kp for this compound: "NCCCCN(Cc1nc2ccccc2[nH]1)[C@H]1CCCc2cccnc21"
Given back: 83.3
